- System: U2OS
- protocolText: Incucyte cell viability with U2OS; note: unitless GR value; below 1 slowed growth and below 0 cell loss
- Assay type: toxicity, cell-based
- appliedConditions: human, 18 h, 10 µM, compound concentration 10 uM, replicate number 2, timepoint 18 hours
readoutType: Growth Rate

[[record]]
compound = "COc1c(C)cc(NC(=O)c2nn(Cc3ccc(F)cc3)c3c2CN(C(=O)c2ccc[nH]2)C[C@]3(C)C(N)=O)cc1C"
readouttype = "Growth Rate"
measured = 0.66

[[record]]
compound = "CCc1nc2c(C)cc(C)nc2[nH]1"
readouttype = "Growth Rate"
measured = 0.93

[[record]]
compound = "CC(C)N(CCCCOCC(=O)NS(C)(=O)=O)c1cnc(-c2ccccc2)c(-c2ccccc2)n1 [SELEXIPAG]"
readouttype = "Growth Rate"
measured = 0.98

[[record]]
compound = "Cc1cnc(CNCC2(F)CCN(C(=O)c3ccc(F)c(Cl)c3)CC2)nc1"
readouttype = "Growth Rate"
measured = 0.78

[[record]]
compound = "NCCc1cn(S(=O)(=O)c2c(Cl)nc3sccn23)c2ccccc12.O=C(O)C(=O)O"
readouttype = "Growth Rate"
measured = 0.45

[[record]]
compound = "CCCCCCCCc1ccc(CC[C@](N)(CO)COP(=O)(O)O)cc1 [FTY720-P]"
readouttype = "Growth Rate"
measured = 1

[[record]]
compound = "CC1=C(C)C(=O)C(C(C)(C)CC(=O)N(CCCCSC[C@H]2O[C@@H](n3cnc4c(N)ncnc43)[C@H](O)[C@@H]2O)Cc2cccc(-c3ccc(Cl)cc3)c2)=C(C)C1=O"
readouttype = "Growth Rate"
measured = 0.91

[[record]]
compound = "C[C@@H]1CN(Cc2ccc(F)cc2)CCN1C(=O)COc1ccc(Cl)cc1NC(N)=O [BX 471 FREE BASE]"
readouttype = "Growth Rate"
measured = 0.79

